- Tested on: U2OS
- Experiment summary: Multiplex assay against U2OS
- Format: toxicity, cell-based
- Condition description: human, 12 h, 1 µM, compound concentration 1 uM, replicate 1
Measure: Population Mitochondria Different-Phenotype (%)

[
  {
    "Molecule": "CC(C)(C)c1ccc(CSc2cnn(C(C)(C)C)c(=O)c2Cl)cc1 [PYRIDABEN]",
    "Value observed": 1
  },
  {
    "Molecule": "CCCCCCNC(=O)Nc1ccc(S(=O)(=O)Nc2ccc(CCNC[C@H](O)COc3ccc(O)cc3)cc2)cc1 [L-755507]",
    "Value observed": 4
  },
  {
    "Molecule": "COc1cc2nc(N3CCN(C(=O)COc4c(OC)cccc4C(C)C)CC3)nc(N)c2cc1OC.Cl.Cl",
    "Value observed": 5
  },
  {
    "Molecule": "CN1CCC(C(=O)c2cccc(NC(=O)c3c(F)cc(F)cc3F)n2)CC1",
    "Value observed": 3
  },
  {
    "Molecule": "COC(c1ccccc1)(c1ccccc1)[C@H](Oc1nc(C)cc(C)n1)C(=O)O [AMBRISENTAN]",
    "Value observed": 0
  },
  {
    "Molecule": "CCCCC[C@H](O)/C=C/[C@H]1[C@H](O)CC(=O)[C@@H]1CCCCCCC(=O)O [ALPROSTADIL]",
    "Value observed": 2
  },
  {
    "Molecule": "COc1cc(Nc2ncc3c(n2)-c2ccc(Cl)cc2C(c2c(F)cccc2OC)=NC3)ccc1C(=O)O [ALISERTIB]",
    "Value observed": 3
  },
  {
    "Molecule": "Cc1nn(C)c2nc(NNC(=O)Nc3cc(Cl)nc(Cl)c3)cc(C(C)C)c12",
    "Value observed": 3
  },
  {
    "Molecule": "CN(C)C(=O)Cn1cc(-c2ccc(-c3nnc4ccccn34)cc2)cn1",
    "Value observed": 1
  },
  {
    "Molecule": "COc1ccc2[nH]c(I)c(CCNC(C)=O)c2c1 [IODOMELATONIN]",
    "Value observed": 3
  },
  {
    "Molecule": "CC(C)C[C@H](CO)Nc1nc(S[C@@H](C)c2ccccc2)nc2nc(N)sc12 [AZD-8797]",
    "Value observed": 1
  },
  {
    "Molecule": "CN1C[C@H](C(=O)N[C@]2(C)O[C@@]3(O)[C@@H]4CCCN4C(=O)[C@H](Cc4ccccc4)N3C2=O)C[C@@H]2c3cccc4[nH]cc(c34)C[C@H]21.CS(=O)(=O)O [DIHYDROERGOTAMINE MESYLATE]",
    "Value observed": 2
  },
  {
    "Molecule": "Nc1nc(-c2ccco2)c2cnn(Cc3ccccc3F)c2n1",
    "Value observed": 2
  },
  {
    "Molecule": "C[C@@H]1CC(=O)Nc2cccc(-c3ccc4c(c3)c(-c3cnn(C)c3)nn4C)c2N1",
    "Value observed": 4
  },
  {
    "Molecule": "Cl.Cl.OCCOCCN1CCN(C(c2ccccc2)c2ccc(Cl)cc2)CC1 (configuration not stated) [HYDROXYZINE HYDROCHLORIDE]",
    "Value observed": 4
  },
  {
    "Molecule": "CN1CCN2c3ccccc3Cc3ccccc3C2C1.Cl (configuration not stated) [MIANSERIN HYDROCHLORIDE]",
    "Value observed": 4
  },
  {
    "Molecule": "Cc1cc(NC(=O)NCCN2CCC(O)(Cc3ccccc3)CC2)c2ccccc2n1 [PALOSURAN]",
    "Value observed": 2
  }
]

# credit: ChEMBL document CHEMBL5058577
